I'd be grateful if you could share measured melting point for these entries.
Answers are plain numbers, in °C.

COC(=O)CN(c1ccc(Cl)cc1C(O)c1ccccc1Cl)S(=O)(=O)c1ccc(OC)c(OC)c1 (stereo not shown)    158.5
COc1ccc(S(=O)(=O)N(Cc2nnn(C)n2)c2ccc(Cl)cc2C(O)c2ccccc2Cl)cc1OC (stereo not shown)    94.8
COc1ccc(N(CC(N)=O)S(=O)(=O)c2ccc(OC)c(OC)c2)c(Cc2ccccc2Cl)c1    184.6

Now turn to the next compound.
# melting point lookup, item `COc1ccc(S(=O)(=O)N(Cc2nnnn2C)c2ccc(Cl)cc2Cc2c(F)cccc2F)cc1OC`
180.8
